target: PTK6 (human) (UniProt Q13882); assay: radiometric filter-binding kinase assay, Kinase HotSpot; conditions: compound 0.5 µM; ATP 10 µM
Sequence (Q13882 whole entry, looked up): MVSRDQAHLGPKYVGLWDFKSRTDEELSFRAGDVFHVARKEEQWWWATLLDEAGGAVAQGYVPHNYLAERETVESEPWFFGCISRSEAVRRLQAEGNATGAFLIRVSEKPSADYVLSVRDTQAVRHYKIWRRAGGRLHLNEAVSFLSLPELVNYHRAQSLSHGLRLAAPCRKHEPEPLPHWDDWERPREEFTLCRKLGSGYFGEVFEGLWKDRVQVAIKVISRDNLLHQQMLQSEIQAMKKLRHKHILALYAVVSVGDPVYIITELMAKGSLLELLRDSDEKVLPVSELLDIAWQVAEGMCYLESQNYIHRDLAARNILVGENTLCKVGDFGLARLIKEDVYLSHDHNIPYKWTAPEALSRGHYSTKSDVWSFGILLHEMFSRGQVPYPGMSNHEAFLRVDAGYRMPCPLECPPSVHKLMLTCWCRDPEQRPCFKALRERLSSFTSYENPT
Catalogue of residual activity readings, one per entry.
Write it as a number; the unit % goes unstated.

Example cases with answers are listed next.
# Molecular string, Measured result
records = [
    ("O=c1[nH]c2ccccc2n1C1CCN(Cc2ccc(-c3nc4cc5[nH]cnc5cc4nc3-c3ccccc3)cc2)CC1", 91.1),
    ("Nc1ncnc2c1cnn2-c1ccccc1", 92),
    ("N#C/C(=C1/Nc2ccccc2S1)c1ccnc(NCCc2cccnc2)n1", 46.5),
    ("Cc1cc(Nc2nc(-c3ccccc3)nc3ccccc23)n[nH]1", 61.6),
    ("O=S(=O)(NCCNC/C=C/c1ccc(Br)cc1)c1cccc2cnccc12", 94.2),
]

Kindly review the next compound as well.
Name the recorded residual activity of the item O=c1c(-c2ccc(F)cc2)c(-c2ccncc2)[nH]n1-c1ccc(Cl)cc1 in your answer.
57.5

Reference for the values: the kinase profiling compilation of Christmann-Franck et al. (2016)
